Data provenance is ChEMBL document CHEMBL3627596.

- system-under-test: Beta-lactamase VIM-2 (Pseudomonas aeruginosa, UniProt Q9K2N0)
- procedure-details: Inhibition of Pseudomonas aeruginosa 301-5473 metallo-beta-lactamase VIM-2 expressed in Escherichia coli BL21(DE3) using nitrocefin as substrate preincubated for 5 mins followed by substrate addition measured every 17 secs for 20 mins by microplate reader analysis
pIC50: −log10 of the molar value.
Label Y for high-side pIC50 (at or above 4) and N for low-side pIC50 (below it).

>>> cat("O=C(O)c1ccccc1Cc1ccccc1")
"N"
>>> cat("O=C(O)CSc1ccnc2cc(Cl)ccc12")
"N"
>>> cat("O=C(O)c1ccccc1C(=O)c1ccccc1 [2-BENZOYLBENZOIC ACID]")
"Y"
>>> cat("COC(=O)c1ccccc1C(=O)c1ccccc1")
"N"
>>> cat("C[C@H](CS)C(=O)N1CCC[C@H]1C(=O)O [CAPTOPRIL]")
"Y"
>>> cat("O=C(O)c1ccccc1C(=O)c1ccc(F)cc1")
"Y"
>>> cat("O=C(O)c1ccccc1C(=O)c1ccc(Cl)cc1")
"Y"
>>> cat("O=C(O)CCCc1c[nH]c2ccccc12")
"N"
>>> cat("Cn1c(S)nnc1C(F)(F)F")
"N"
>>> cat("N#Cc1coc2ccccc2c1=O")
"N"

Query: Would you say `CC(=O)c1ccccc1C(=O)O` shows pIC50 at minimum 4?
Reply: N

Query: Please tell me: is the compound `CCCc1ccc(C(=O)CCC(=O)O)cc1` at or over 4 in terms of pIC50?
Reply: N

Query: API: above_or_equal(metric=pIC50, cutoff=4) for item `N#Cc1c(C(F)(F)F)cc(-c2cccs2)nc1O`
Reply: N

Query: Exam item: decide whether the reported pIC50 for `O=C(O)c1cncc(C#Cc2ccccc2)c1` is at least 4.
Reply: N

###

- system-under-test: Beta-lactamase VIM-2 (Pseudomonas aeruginosa)
- procedure-details: Reversible binding affinity to Pseudomonas aeruginosa 301-5473 metallo-beta-lactamase VIM-2 expressed in Escherichia coli BL21(DE3) measured for 15 secs by SPR analysis
Recorded measurements of Kd, one per entry
Number in µM, nothing else.

>>> result("C[C@@H](O)[C@H]1C(=O)N2C(C(=O)O)=C(S[C@@H]3CN[C@H](C(=O)N(C)C)C3)[C@H](C)[C@H]12")
12

Shifting focus to the compound that follows.
Query: Return reported Kd; argument: `C[C@H](CS)C(=O)N1CCC[C@H]1C(=O)O`
Reply: 0.6

###

- system-under-test: Beta-lactamase VIM-2 (Pseudomonas aeruginosa)
- procedure-details: Binding affinity to Pseudomonas aeruginosa 301-5473 metallo-beta-lactamase VIM-2 expressed in Escherichia coli BL21(DE3) measured for 15 secs by SPR analysis
metric: Kd (µM)
// units = µM; emit number, no label

Worked cases, answers included:
>>> result("Cn1c(S)nnc1C(F)(F)F")
145
>>> result("N#Cc1coc2ccccc2c1=O")
999
>>> result("O=C(O)CCCc1c[nH]c2ccccc12")
274

Query: For the molecule shown here, `O=C(O)c1ccccc1C(=O)c1ccc(F)cc1` , give the reported Kd.
Reply: 9

Query: I have this molecule here, `N#Cc1c(C(F)(F)F)cc(-c2cccs2)nc1O` , and I need its recorded Kd.
Reply: 229

Query: I have this molecule here, `O=C(O)c1cncc(C#Cc2ccccc2)c1` , and I need its recorded Kd.
Reply: 446

Query: Look up Kd for this molecule: `CCCc1ccc(C(=O)CCC(=O)O)cc1`
Reply: 173

Query: Suppose we examine the molecule `O=C(O)CSc1ccnc2cc(Cl)ccc12` ; what Kd value has been reported?
Reply: 264
